// provenance: patent US9139567B2

Parameter IC50: see the listing below.
Tested on: LTB4 production in human whole blood
Assay: LTB4 production inhibition assay in human whole blood (calcimycin-stimulated)
Format: cell-based
Conditions: heparinized human whole blood, 15 min 37° C., calcimycin 20 μM 30 min, plasma LTB4 by HTRF
Experimental: Compounds of the invention are additionally tested in a human whole blood assay to determine their ability to inhibit the synthesis of LTB4 in a cellular system. Compounds are combined with heparinized human whole blood and incubated for 15 minutes at 37° C. […] Plasma LTB4 concentrations are then measured using an antibody-based homogenous time-resolved fluorescence method (CisBio, Bedford, Mass.).

Here's what some known entries look like.
Query: Complete the entry with IC50 for `c1cc(-c2ccc(Oc3ccc(OCc4ccsc4)cc3)cc2)[nH]n1`
Response: ≥ 5 µM

Query: Complete the entry with IC50 for `c1cc(-c2ccc(Oc3ccc(OCc4ccoc4)cc3)cc2)[nH]n1`
Response: ≥ 5 µM

---
Query: Complete the entry with IC50 for `O=C1OCC[C@H]1Oc1ccc(Oc2ccc(-c3ccn[nH]3)cc2)cc1`
Response: ≥ 5 µM

Query: Complete the entry with IC50 for `Cc1nc(COc2ccc(Oc3ccc(-c4ccn[nH]4)cc3)cc2)co1`
Response: ≥ 5 µM

Query: Complete the entry with IC50 for `c1ccc2sc(COc3ccc(Oc4ccc(-c5ccn[nH]5)cc4)cc3)nc2c1`
Response: ≥ 5 µM

Query: Complete the entry with IC50 for `Cn1ncnc1COc1ccc(Oc2ccc(-c3ccn[nH]3)cc2)cc1`
Response: ≥ 5 µM
